Assayed Target: mouse Nurr1 receptor (Mus musculus, UniProt Q06219)
Construct: a cell line (N2A) endogenously expressing the mouse Nurr1 receptor
Sequence (Q06219 whole entry): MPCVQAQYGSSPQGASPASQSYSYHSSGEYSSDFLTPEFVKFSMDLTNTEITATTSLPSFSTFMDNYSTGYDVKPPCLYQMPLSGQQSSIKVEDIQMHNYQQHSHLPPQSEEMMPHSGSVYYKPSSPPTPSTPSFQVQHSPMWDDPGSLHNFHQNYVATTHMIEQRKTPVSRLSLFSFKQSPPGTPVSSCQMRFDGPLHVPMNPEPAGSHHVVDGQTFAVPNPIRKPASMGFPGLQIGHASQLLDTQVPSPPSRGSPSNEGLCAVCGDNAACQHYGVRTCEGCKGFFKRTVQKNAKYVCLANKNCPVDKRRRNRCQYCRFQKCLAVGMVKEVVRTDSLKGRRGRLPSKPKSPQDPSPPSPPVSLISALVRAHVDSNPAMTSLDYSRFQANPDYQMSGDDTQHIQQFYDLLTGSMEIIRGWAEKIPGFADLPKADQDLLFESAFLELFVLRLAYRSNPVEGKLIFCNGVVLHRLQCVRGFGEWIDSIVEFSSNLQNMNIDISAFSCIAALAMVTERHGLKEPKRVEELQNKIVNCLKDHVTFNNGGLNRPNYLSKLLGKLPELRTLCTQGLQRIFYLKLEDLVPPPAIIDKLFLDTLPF
Test Details: In vitro activity on N2A cells (NBRE-luciferase reporter)
Recorded Conditions: N2A-8NBRE cells, products incubated 24 hours
Reported EC50 is given for each of the following compounds.
Record the value in nM, omitting the unit from your answer.

Here is how some compounds turned out for EC50.
{"columns": ["Compound", "Parameter Measured", "Unit Tag", "Value Reported"],
 "data": [
  ["Cc1c(-c2ccccc2)nc2ccc(-c3cccc(CO)c3)cn12 [Compound 3]", "EC50", "nM", 0.5],
  ["COc1ccc(-c2nc3ccc(-c4cccc(C(C)(C)O)c4)cn3c2C)cc1 [Compound 15]", "EC50", "nM", 161],
  ["Cc1cc(-c2cccc(CO)c2)cn2cc(-c3ccc(Cl)cc3)nc12 [Compound 1]", "EC50", "nM", 5],
  ["Cc1c(-c2cccc(Cl)c2)nc2ccc(-c3ccc(F)c(CO)c3F)cn12 [Compound 19]", "EC50", "nM", 1.7]
]}

[Q] So what's the measured EC50 for this one? Cc1cc(-c2ccc(CO)cc2)cn2cc(-c3ccc4ccccc4c3)nc12 [Compound 10]
[A] 68
